B1: STK38L (parent)
chain: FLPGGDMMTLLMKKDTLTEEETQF

variants of: B1; test: protein stability index of a GFP-peptide fusion (GPS, HEK-293T) (PSI 1-6); higher = more stable; conditions: c terminus: a fixed tail appended;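 note: lentivirally expressed fusions sorted by FACS into six bins by GFP to DsRed ratio, PSI derived from sequencing read proportions per bin multiplied by bin number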
Think of 2 as a floor: if protein stability index stands on it or above, it is class 1; beneath it, class 0.

**Query** Could you tell me if the measured protein stability index of FLPGGDMMTLLMKKDTLTEETTQF [E21T] reaches 2 or more?
**Result** class 0

**Query** Repeat for the following variant: FYPGGDMMTLLMKKDTLTEEETQF [L2Y]
**Result** class 1

**Query** Repeat for the following variant: FLPGGDMMTLLMKKDTLTEEETPF [Q23P]
**Result** class 1

**Query** Repeat for the following variant: FLPGADMMTLLMKKDTLTEEETQF [G5A]
**Result** class 1

**Query** Repeat for the following variant: FLPGGDMMTLLMKKDTLTEEETHF [Q23H]
**Result** class 1

**Query** Repeat for the following variant: FLPGGDMMTLLMKKDTLTESETQF [E20S]
**Result** class 0

**Query** Repeat for the following variant: FLPGGDMMTLLMKKDTLTEEEQQF [T22Q]
**Result** class 1

**Query** Repeat for the following variant: FLPGGDMMTLLMKKDTLTDEETQF [E19D]
**Result** class 1

**Query** Repeat for the following variant: FLPGGDMMTLLMKKDTLTEEETQT [F24T]
**Result** class 1

**Query** Repeat for the following variant: FLPGGDMMTLLMKKDILTEEETQF [T16I]
**Result** class 1

**Query** Repeat for the following variant: FLPGGDMMTLLMKCDTLTEEETQF [K14C]
**Result** class 1

**Query** Repeat for the following variant: FLPGCDMMTLLMKKDTLTEEETQF [G5C]
**Result** class 1

**Query** Repeat for the following variant: FLPGGDMMTLLMKKDTLTEEETDF [Q23D]
**Result** class 1

**Query** Repeat for the following variant: FLPGGDMMTLDMKKDTLTEEETQF [L11D]
**Result** class 1

**Query** Repeat for the following variant: FLPMGDMMTLLMKKDTLTEEETQF [G4M]
**Result** class 1

**Query** Repeat for the following variant: KLPGGDMMTLLMKKDTLTEEETQF [F1K]
**Result** class 1

**Query** Repeat for the following variant: FLPGGDMMTLLMKKDTLTEWETQF [E20W]
**Result** class 0

**Query** Repeat for the following variant: FFPGGDMMTLLMKKDTLTEEETQF [L2F]
**Result** class 1

**Query** Repeat for the following variant: FLPGGDMMTLLMKKHTLTEEETQF [D15H]
**Result** class 1

**Query** Repeat for the following variant: FLPGGDMMTLLEKKDTLTEEETQF [M12E]
**Result** class 1

**Query** Repeat for the following variant: FLPGGDMMTLLMKKDTLTEESTQF [E21S]
**Result** class 1

**Query** Repeat for the following variant: FLPGGHMMTLLMKKDTLTEEETQF [D6H]
**Result** class 0

**Query** Repeat for the following variant: FLPGGDVMTLLMKKDTLTEEETQF [M7V]
**Result** class 1

**Query** Repeat for the following variant: FLPGGDMMTLLPKKDTLTEEETQF [M12P]
**Result** class 1

**Query** Repeat for the following variant: FLPGGDPMTLLMKKDTLTEEETQF [M7P]
**Result** class 1

**Query** Repeat for the following variant: FLPGGDMMTLLMKKDTLTECETQF [E20C]
**Result** class 1

**Query** Repeat for the following variant: FLPGGDMMTLLMKKDTLTSEETQF [E19S]
**Result** class 1

**Query** Repeat for the following variant: FLPGGDMMTLLMKKDTLTEEWTQF [E21W]
**Result** class 1

**Query** Repeat for the following variant: FLPGGDMMTLLMKKDTLTELETQF [E20L]
**Result** class 0

**Query** Repeat for the following variant: FLPGGDMMTLLMKTDTLTEEETQF [K14T]
**Result** class 1

**Query** Repeat for the following variant: FCPGGDMMTLLMKKDTLTEEETQF [L2C]
**Result** class 0

**Query** Repeat for the following variant: FLPGGDMMTLLMKKDTLTEEERQF [T22R]
**Result** class 1

**Query** Repeat for the following variant: FLPGGDMMTLLMKKDTLTEEYTQF [E21Y]
**Result** class 0

**Query** Repeat for the following variant: FLPGGDMMTLLMKKDHLTEEETQF [T16H]
**Result** class 1
